These entries and their values trace back to paper PMC6522510.

Tested on: ML-2
Design: species or system AML cell lines (8); Primary HTS, single concentration about 10 uM, Cell Titer Glo viability; log10 luminescence, per cent inhibition relative to cycloheximide control
Details: 72 h, relative to cycloheximide control, log10 luminescence; inhibitor
measuredProperty: ML-2 %inh (%)
Give your result in % as a bare value.

Observed ML-2 %inh, ML-2, COc1cc(C)c2c(Oc3cccc(C(F)(F)F)c3)c(OC)cc(NC(C)CCCN)c2n1 (stereo not drawn) [TAFENOQUINE] : 62.38

Observed ML-2 %inh, ML-2, CS(=O)(=O)CCNCc1nc(-c2ccc3ncnc(Nc4ccc(OCc5cccc(C(F)(F)F)c5)cc4)c3c2)cs1 [SJ000573071-1, U14859/60/2] : 1.048

Observed ML-2 %inh, ML-2, COc1cccc(C2=C(c3c(C)n(C)c4ccccc34)C(=O)NC2=O)c1 [SJ000581144-1] : -0.7501

Observed ML-2 %inh, ML-2, COc1cc(C)c(N(C)C(=O)CN(C)C)cc1Nc1nc(Nc2cccc(F)c2C(N)=O)c2cc[nH]c2n1 [SJ000573042-1, N5326-79-1] : 14.99

Observed ML-2 %inh, ML-2, Nc1nccc(-c2c(-c3ccc(F)cc3)ncn2C2CCC(O)CC2)n1 (stereo not drawn) [SJ000573182-1, MS27011-022A2] : 10.85

Observed ML-2 %inh, ML-2, Cn1c(=O)c(Oc2ccc(F)cc2F)cc2cnc(NC(CO)CO)nc21 [SJ000581024-1] : 0.9662

Observed ML-2 %inh, ML-2, O=C(O)Cc1cccc2c(=O)c([N+](=O)[O-])c(-c3ccccc3[N+](=O)[O-])oc12 [SJ000772406-1, AMINOPEPTIDASE N INHIBITOR] : 1.312

Observed ML-2 %inh, ML-2, CC1=C(C(=O)Nc2ccc3[nH]ncc3c2)C(c2ccc(F)cc2)NC(=O)N1 (stereo not drawn) [SJ000573212-1, SD203460-064A1] : 7.379

Observed ML-2 %inh, ML-2, Nc1c(C(=O)c2cccc(-c3ccc[n+]([O-])c3)c2)cnn1-c1ccc(F)cc1F [SJ000581156-1] : 2.597

Observed ML-2 %inh, ML-2, C#Cc1cccc(Nc2ncnc3ccc(OCCCCNCCS(C)(=O)=O)cc23)c1 [SJ000573075-1, U14819/194/1] : 4.028

Observed ML-2 %inh, ML-2, O=C1NC(=O)C(c2cccc(Cl)c2)=C1Nc1ccc(Cl)c(C(=O)O)c1 [SJ000573179-1, RS98844-062A1] : 0.225

Observed ML-2 %inh, ML-2, CN(C)CCCNc1nccc(-c2c(-c3ccc(F)cc3)nn3cc(C(F)(F)F)ccc23)n1 [SJ000573200-1, U14929/105/1] : 2.988

Observed ML-2 %inh, ML-2, Nc1c(C(=O)c2cccc(CCC3(O)CCCC3)c2)cnn1-c1ccc(F)cc1 [SJ000580994-1] : -0.2918

Observed ML-2 %inh, ML-2, COc1cc(F)c(F)cc1C(=O)c1cnc(NC2CCN(S(C)(=O)=O)CC2)nc1N [SJ000581030-1] : 12.87

Observed ML-2 %inh, ML-2, CC(=O)N[C@@H](Cc1ccc(OP(=O)(O)O)cc1)C(=O)N[C@H]1CCC(=O)N2CCC[C@@H](C(=O)NCc3ccc(O)cc3)N2C1=O [SJ000581139-1] : -0.8925

Observed ML-2 %inh, ML-2, CCn1c(-c2nonc2N)nc2cncc(C(=O)N3CC[C@H](N)C3)c21 [SJ000573211-1, MH203936-065A1] : 13.35

Observed ML-2 %inh, ML-2, O=C(Nc1n[nH]c2nc(-c3ccc(O)cc3)c(Br)cc12)C1CC1 [SJ000573153-1, AN100368-079A1] : 13.84

Observed ML-2 %inh, ML-2, O=c1ncnc2n([C@H]3O[C@@H](CO)[C@H](O)[C@@H]3O)[nH]cc1-2 (stereo in doubt) [SJ000562682-1, ALLOPURINOL RIBOSIDE] : 0.3274

Observed ML-2 %inh, ML-2, O=C1NC(=O)C(N2CCc3ccccc32)=C1c1ccc(Cl)cc1 [SJ000573268-1, DH97836-102A1] : -0.2823

Observed ML-2 %inh, ML-2, Cn1cc(C2=C(c3cn(CCCN)c4ccccc34)C(=O)NC2=O)c2ccccc21 [SJ000581029-1, RO 31-7549] : -0.6707

Observed ML-2 %inh, ML-2, CNC(=O)c1cncc(/C=C/c2ccccc2C)c1 [SJ000573069-1, U12068/59/1] : -0.01519

Observed ML-2 %inh, ML-2, Fc1ccc(-c2ncn(C3CCNCC3)c2-c2ccnc(Oc3ccc(Oc4ccccc4)cc3)n2)cc1 [SJ000573126-1, JB27026-104B1] : 34.19

Observed ML-2 %inh, ML-2, Cc1ccccc1-n1ncc(C(=O)c2ccccc2)c1N [SJ000581031-1] : 1.074

Observed ML-2 %inh, ML-2, Cc1cn([C@@H]2C[C@@H](O)[C@H](CO)O2)c(=O)[nH]c1=O [SJ000556735-1, TELBIVUDINE] : 2.339

Observed ML-2 %inh, ML-2, Fc1ccc(-c2nn3ncccc3c2-c2ccnc(Nc3ccc4c(c3)OCCO4)n2)cc1 [SJ000573081-1, U18020/136/2] : -1.741

Observed ML-2 %inh, ML-2, CN(C)C(=O)Oc1ccc[n+](C)c1 [SJ000286222-6, PYRIDOSTIGMINE BROMIDE] : 1.797

Observed ML-2 %inh, ML-2, Cn1cc(C2=C(c3cn(C)c4c([N+](=O)[O-])cccc34)C(=O)NC2=O)c2ccccc21 [SJ000581096-1] : -1.675

Observed ML-2 %inh, ML-2, Cn1cc(C2=C(c3cn(CCO)c4ccccc34)C(=O)NC2=O)c2ccccc21 [SJ000581041-1] : 20.21

Observed ML-2 %inh, ML-2, Nc1nc(=O)n([C@@H]2CS[C@H](CO)O2)cc1F [SJ000556750-1, EMTRICITABINE] : 2.01

Observed ML-2 %inh, ML-2, CCS(=O)(=O)c1ccc(OC)c(Nc2ncc(-c3cccc(F)c3)o2)c1 [SJ000573008-1, U15747/41/2] : 0.9608

###

System: MOLM-13
Design: species or system AML cell lines (8); Primary HTS, single concentration about 10 uM, Cell Titer Glo viability; log10 luminescence, per cent inhibition relative to cycloheximide control
Details: 72 h, relative to cycloheximide control, log10 luminescence; inhibitor
Kindly state MOLM-13 %inh for each of the entries shown.

Observed MOLM-13 %inh, MOLM-13, COc1ccc2nc3cc(Cl)ccc3c(Nc3cc(CN4CCCC4)c(O)c(CN4CCCC4)c3)c2n1 [SJ000518979-1, PYRONARIDINE PHOSPHATE] : 93.43%

Observed MOLM-13 %inh, MOLM-13, `C[C@H](CS(C)(=O)=O)Nc1ncc2cc(Oc3ccc(F)cc3F)c(=O)n(C)c2n1` : -1.998%

Observed MOLM-13 %inh, MOLM-13, `Cn1c(=O)c(Oc2ccc(F)cc2F)cc2cnc(NC(CO)CO)nc21` : 0.3413%

Observed MOLM-13 %inh, MOLM-13, `COc1cccc(-n2nc(C)c3c(N/N=C(\C)c4ccncc4)ncnc32)c1` : -1.351%

Observed MOLM-13 %inh, MOLM-13, `CN(C)/N=N/c1[nH]cnc1C(N)=O` : 31.43%

Observed MOLM-13 %inh, MOLM-13, `CCn1c(=O)c(Oc2ccc(F)cc2F)cc2cnc(NC3CCOCC3)nc21` : 2.299%

Observed MOLM-13 %inh, MOLM-13, `Fc1ccc(-c2ncn(C3CCNCC3)c2-c2ccnc(Oc3ccc(F)c(F)c3)n2)cc1` : -3.394%

Observed MOLM-13 %inh, MOLM-13, CCc1cccc2c3c([nH]c12)C(CC)(CC(=O)O)OCC3 (centres unmarked) : 1.754%

###

Test system: CHRF288-11
Experiment: cells
Parameters: species or system AML cell lines (8); Secondary HTS, 10-point dose-response in triplicate, Cell Titer Glo viability, four-parameter fit EC50
Details: 72 h, read-out: CHRF288-11
Kindly state EC50 for each of the entries shown.
Give your result in nM as a bare value.

The compound identified as `CO[C@H]1/C=C\C=C(/C)C(=O)NC2=CC(=O)C(NCCN(C)C)=C(C[C@@H](C)C[C@H](OC)[C@H](O)[C@@H](C)/C=C(\C)[C@@H]1OC(N)=O)C2=O` registered its EC50 at 520

The compound identified as CC(C)(O)[C@@H]1CC[C@](C)([C@H]2[C@@H](O)C[C@@]3(C)[C@@H]4C[C@H](O[C@@H]5O[C@H](CO)[C@@H](O)[C@H](O)[C@H]5O)[C@H]5C(C)(C)[C@@H](O[C@@H]6OC[C@@H](O)[C@H](O)[C@H]6O)CC[C@@]56C[C@@]46CC[C@]23C)O1 [SJ000785909, ASTRAGALOSIDE IV] registered its EC50 at 810
